# measured_target: 1,4-dihydroxy-2-naphthoate octaprenyltransferase (Mycobacterium tuberculosis)
# Sequence (P9WIP3 whole entry): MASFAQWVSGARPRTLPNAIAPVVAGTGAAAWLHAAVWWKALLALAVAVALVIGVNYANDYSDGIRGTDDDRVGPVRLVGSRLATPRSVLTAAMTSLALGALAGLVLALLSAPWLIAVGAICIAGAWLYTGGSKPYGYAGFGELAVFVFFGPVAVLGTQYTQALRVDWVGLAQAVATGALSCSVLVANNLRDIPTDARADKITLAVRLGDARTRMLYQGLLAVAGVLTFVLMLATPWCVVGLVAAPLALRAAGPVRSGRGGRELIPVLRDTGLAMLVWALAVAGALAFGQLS
# protocol_text: Displacement of [3H]FPP from Mycobacterium tuberculosis mc2 6230 membrane protein MenA incubated for 30 mins by liquid scintillation spectrometry
# Format: cell membranes
# conditions: read-out: IC50
measured_quantity: IC50 (µM)

> print(dat)
                                   molecule  bound.type  endpoint.value
1  CCCN(C)c1ccc(CN2CCC(COc3cccc(Nc4ccccc4C)c3)CC2)cc1           =              22
2  CCCN(C)c1ccc(CN2CCC(COc3ccc(Br)cc3)CC2)cc1           =              12
3  CCCN(C)c1ccc(CN2CCC3(CC2)CC(Oc2ccc(Cl)cc2)CO3)cc1 (stereo not given)           >              50
4  CCCN(C)c1ccc(CN2CCC(COc3ccccc3Cl)CC2)cc1           =              31
5  CCCN(C)c1ccc(CN2CCC(COC3[C@H]4C[C@@H]5C[C@@H](C[C@H]3C5)C4)CC2)cc1 (stereo not given in full)           =              23

Recorded values, source ChEMBL document CHEMBL5346878.
